Data provenance: the domain aggregation screens of Martell et al. (2025)

assay.text: soluble fraction after stress (log2 fold change); higher = more stays soluble; pooled small domains, quantitative proteomics
measurement.parameters: stress: 50 degC
Response key: fulfilled means soluble fraction (log2) >= -0.02; not fulfilled means soluble fraction (log2) < -0.02.

>>> df
                                    sequence       category
 0  HMSIEIKTIDVKHADLFQLQDILRNLYPELNIVPDQRNNKLILQGKRELLVEAERLTLQLDTE      fulfilled
 1  HMNNTIKFFVSQDDDSTRLDVFLSKKIENLTRSNIKKFINLNNVKINKATINSPSKKVKLYDEIEIKFSS  not fulfilled
 2  HMTDFESYTVRVTATNLNIRKGAGTNFHSAGYIKPGVYTIVEEADGKGATRWGKLKSGMGWISLDYAKK  not fulfilled
 3  HMGSEISYSEFLNRVEQGQVAAVRLDGEQIFITGPTGEAYQTIQPRNTDVLPDLREAGVEIQAAPQ  not fulfilled
 4  HMRRMAYLVGQRGLAMGDFISGTGQVRIGDTVWRAEAVEGELVRTGDTVVVEGAKMTTAIVRRVM  not fulfilled
 5  HMDTRSSARKALDAVNLLLETYGAKAYQHSYEIAGRRQQFQTPGDFMAFRSRLMAEVATEENAARINA      fulfilled
 6  HMLRQVSDSNALETAVKKVLDANPEEVERYKSGNKKLISFFVGQTMKATKGAGNPKEINSILAKLL      fulfilled
 7  HMGFDTSMNKYTIDDLLKLLELGSNPSQAEIVNKITNFNTIFVDNSGVIQFLNNIQDKLLDNFK  not fulfilled
 8  HMTLSENEKIIVDTIMKYQPLHIDVLNQQVKVDFYTLLGLLTKLEMEGIVLKNPGNIYKINTL  not fulfilled
 9  HMQLLDIGSAVRIIREPYFGRLGTVVELPPELMEIESGTHARVLKAKLDDGTVAVVPRANVEIIVE  not fulfilled
10  HMDAAANTLRILKALSESPMSADRLAELLMEEGSGRNPRTIRRYIRALREAGFGVEHREGRYVL  not fulfilled
11  HMKDIIVDPQGQYNHPGVPTRIPSSDITMKGVGYPVLGIADNGQKQMMQPGQDYKFPGAKYVDEYPQM      fulfilled
12  HMIDNFFTIRFNYSKINEVIRLLKEFNGEIFNKNYDKNEYIIEFSIPKKDAALLISKLKNITGLTIEQ      fulfilled
13  HMFTGELESRVFELNYVDGLVASAALAGVLTDKGSATPIASRAGGENDMLLVVDRIASYSQIEKIITQLD  not fulfilled
14  HMKNSMANVQARREKILSAVDQSEPVAVEGLAQRFNVSITTLRRDLKALSDMGQVKWHHGLVERT  not fulfilled
15  HMNPTSLTFRSNVKDGKVYVDGIFKGSSDLDFDLPKGRHSIRIEKDGYVPFAKTINLIKALVIDFNMEKA  not fulfilled
16  HMQVSITGYLGGEKIGLFDDAKFKALAAKQGIAIDYRKAGSPAMMDADRKGMDYLFPSSRAAVEYGNAKGV      fulfilled
17  HMESMIGSLRGRLLELFGDGEVLIEVGGVGYRVIVTPTTTVRLGDVGGDVFVHVHHHIREADQTLYGF  not fulfilled
18  HMPFSLHGVNEGSRNDNAARIAGYLISKNLNLDFVRIFLHNWNRDNKPPLPQQEIDSVVDNVKKTHDRKN  not fulfilled
19  HMKLTPKQQQIYDFISSFADEHGYPPSVREIAQAVNLKSPATVHFHLKGLREAGYISQAEGKTRAITI  not fulfilled
20  HMESAVDVFRSILKEKGVTEEEVRQVVAARGKYTLETPIDDYPNEFLYGYVIRYWDQIFDIIQQSREAK  not fulfilled
21  HMGGQKTREAIFDLIMTNSKITSAQIAEILGIHRSGVARHLKKLQEEGLIKREGPDNGGQWIVIK  not fulfilled
22  HMPDLQDTLYRLVPEDGSAIGNQSLREKFLSTAKDASDADFEAARDGLVEQGKLTKGKGRGGSVRRAEP      fulfilled
23  HMNKTQLQIEDEVLKPLIAEIFSKSKGRFGARKIRSKLMGLGYTASERRILRLMKELGLSSAG  not fulfilled
24  HMQQVLGDVNEDDKVDFLDAIVVLRHDAEIIQLTDNQMKAAEVNKDGKVDFLDAIMILRYDAEIIGS  not fulfilled
25  HMLSAGETYTLGYLKASDGILFTAADGSEQTVMQRVQVRLYDNGDGTYTARLADDIAYSAVVTEDMIDK  not fulfilled
26  HMFRPRIEPGAKGSYVLEVQKRLAKLGYEHAGFDGVYGPGTERAIMQLQRDKGLPVTGIVDMRTYEALGLF  not fulfilled
27  HMVAFYATPKERGIYDDAETYREGDIVSIADGSRWIYVNPTATAGNDPADGSVYWERMSGAATGP      fulfilled
28  HMKKYLTETEAAAYLNMPVEEIKAAITKGEIEQYVKTSSGYTISVEELDKFFGQKAYDTMTSNNS      fulfilled
29  HMSTMLPFVMRELVELVMKKKALPLGDALYYIYSSKLYKSLLDKSTKLWYSSTLSLYETLEKEKTEEKRRY  not fulfilled
30  HMDAPLIIAETRVDVPDATVSDAVMMLDLRNTNALLFKNSGSGVLNMVYRRGDGTIGWGEPQ      fulfilled
31  HMEYYIMPVANLHKVVVDGKDMSNLISNNAIAVKANVIDEGQIQIKPGEIIITTPAGVSPEEAVRSP      fulfilled
32  HMVYLPGEEIPLKIIQEGKESGQGVGYLEDGTMVVVENGRRYLNQEVLVQVTKILQTNAGRLIFAVP  not fulfilled
